STUDY_SYSTEM: T1, rat GIP receptor (rat, UniProt P43219 19-455)
T1 sequence (looked up): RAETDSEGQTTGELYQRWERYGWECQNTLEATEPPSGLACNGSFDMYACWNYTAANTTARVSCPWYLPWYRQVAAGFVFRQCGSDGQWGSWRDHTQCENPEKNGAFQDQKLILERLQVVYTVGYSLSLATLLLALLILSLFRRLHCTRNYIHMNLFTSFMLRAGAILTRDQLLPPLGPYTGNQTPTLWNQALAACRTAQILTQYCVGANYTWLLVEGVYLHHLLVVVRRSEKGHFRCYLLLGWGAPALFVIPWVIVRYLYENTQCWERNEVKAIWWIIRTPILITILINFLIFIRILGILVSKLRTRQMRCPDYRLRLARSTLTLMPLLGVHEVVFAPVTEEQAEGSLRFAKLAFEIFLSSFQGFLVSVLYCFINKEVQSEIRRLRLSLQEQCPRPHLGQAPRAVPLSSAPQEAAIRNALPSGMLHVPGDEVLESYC
ASSAY_METHOD_TEXT: cell-based or functional assay
RESULT_TYPE: cAMP EC50 (nM)

- BINDER: "IP325 (Fc fusion) YSEGTFTSDYSKLLEEEAVRLFIEWLVKGPGGGGGSGGGGSGGGGSGGGGSGGGGSGGGGSGGGGSGGGGSA"
  RESULT_TYPE: "cAMP EC50"
  VALUE_OBSERVED: 0.13
- BINDER: "IP384 (Fc fusion) YSEGTFTSDYSKLLEEEAVRLFIEWLLKGGGGGGSGGGGSGGGGSGGGGSATHTCPPC"
  RESULT_TYPE: "cAMP EC50"
  VALUE_OBSERVED: 0.043
- BINDER: "IP253 (Fc fusion) YSEGTFTSDYSKLLDEEAVRLFIEWLLAGAPPGGSGSTASSGSGSATGGGGAATHTCPPCPAPEF"
  RESULT_TYPE: "cAMP EC50"
  VALUE_OBSERVED: 0.024
- BINDER: "IP228 (Fc fusion) YSEGTFTSDYSKLLEEEAVRLFIEWLKNGGAAAGGSGSTASSGSGSATGGGGAATHTCPPCPAPEF"
  RESULT_TYPE: "cAMP EC50"
  VALUE_OBSERVED: 7
- BINDER: "IP295 (Fc fusion) YSEGTFTSDYSKLLEEEAVRLFIEWLLAGGPSSGAPPPSGGGGGSGGGGSGGGGSGGGGSATHTCPPC"
  RESULT_TYPE: "cAMP EC50"
  VALUE_OBSERVED: 0.041
- BINDER: "IP298 (Fc fusion) YSEGTFTSDVSSYLERQAIDEFIAWLLKGGAAAGGSGSTASSGSGSATGGGGAATHTCPPC"
  RESULT_TYPE: "cAMP EC50"
  VALUE_OBSERVED: 7.5
- BINDER: "IP276 (Fc fusion) YSEGTFTSDYSKLLEEEAVRLFIEWLVKGPGGGGGGGGGGGGGGGGGATHTCPPC"
  RESULT_TYPE: "cAMP EC50"
  VALUE_OBSERVED: 0.26
- BINDER: "IP262 (Fc fusion) YSEGTFTSDYSKLLEEEAVRLFIEWLLKGPGGGGGSGGGGSGGGGSGGGGSATHTCPPCPAPEF"
  RESULT_TYPE: "cAMP EC50"
  VALUE_OBSERVED: 0.019
- BINDER: "IP237 (Fc fusion) YSEGTFTSDYSKLLEEEAVRLFIEWLVKGPGGGGGSGGGGSGGGGSGGGGSATHTCPPCPAPEF"
  RESULT_TYPE: "cAMP EC50"
  VALUE_OBSERVED: 0.14
- BINDER: "IP279 (Fc fusion) YSEGTFTSDYSKLLEEEAVRLFIEWLVKGPSSGAPPPSGGGGGSGGGGSGGGGSGGGGSATHTCPPC"
  RESULT_TYPE: "cAMP EC50"
  VALUE_OBSERVED: 0.097
- BINDER: "IP326 (Fc fusion) YSEGTFTSDYSKLLEEEAVRLFIEWLLAGGGGGGGSGGGGSGGGGSGGGGSGGGGSA"
  RESULT_TYPE: "cAMP EC50"
  VALUE_OBSERVED: 0.037
- BINDER: "IP304 (Fc fusion) YSEGTFTSDVSSYLERQAIEEFIAWLLKGGAAAGGSGSTASSGSGSATGGGGAATHTCPPC"
  RESULT_TYPE: "cAMP EC50"
  VALUE_OBSERVED: 4.6
- BINDER: "IP296 (Fc fusion) YSEGTFTSDYSKLLEEEAVRCFIEWLVKGGPSSGAPPCSGGGGGGGGGGGGGGGGGGGGGGGGACPPC"
  RESULT_TYPE: "cAMP EC50"
  VALUE_OBSERVED: 0.46
- BINDER: "IP322 (Fc fusion) YSEGTFTSDYSKLLEEEAVRLFIEWLVKGPGGGGGSGGGGSGGGGSGGGGSGGGGSA"
  RESULT_TYPE: "cAMP EC50"
  VALUE_OBSERVED: 0.11
- BINDER: "IP292 (Fc fusion) YSEGTFTSDYSKLLEEEAVRCFIEWLVKGGPGGGAPPCGGGGGGGGGGGGGGGGGGGACPPC"
  RESULT_TYPE: "cAMP EC50"
  VALUE_OBSERVED: 0.29
- BINDER: "IP360 (Fc fusion) YSEGTFTSDYRILLEEEAVRLFIEWLLAGGGGGGSGGGGSGGGGSGGGGSATHTCPPC"
  RESULT_TYPE: "cAMP EC50"
  VALUE_OBSERVED: 0.033
- BINDER: "IP266 (Fc fusion) YSEGTFTSDYSKLLEEEAVRLFIEWLLAGAPPGGSGGGGSGGGGSGGGGSATHTCPPCPAPEF"
  RESULT_TYPE: "cAMP EC50"
  VALUE_OBSERVED: 0.038
- BINDER: "IP294 (Fc fusion) YSEGTFTSDYSKLLEEEAVRLFICWLVCGPGGGGGGGGGGGGGGGGGGGGACPPC"
  RESULT_TYPE: "cAMP EC50"
  VALUE_OBSERVED: 100
- BINDER: "IP382 (Fc fusion) YSEGTFTSLYSKLLEEEAVRLFIEYLLAGGGGGGSGGGGSGGGGSGGGGSATHTCPPC"
  RESULT_TYPE: "cAMP EC50"
  VALUE_OBSERVED: 0.92
- BINDER: "IP383 (Fc fusion) YSEGTFTSLYRILLEEEAVRLFIEWLLAGGGGGGSGGGGSGGGGSGGGGSATHTCPPC"
  RESULT_TYPE: "cAMP EC50"
  VALUE_OBSERVED: 0.976
- BINDER: "IP390 (Fc fusion) YSEGTFTSDYSKLLEEEAVRLFIEWLVKGPGGGGGSGGGGSGGGGSGGGGSGGGGSACPPC"
  RESULT_TYPE: "cAMP EC50"
  VALUE_OBSERVED: 0.23

// data source = patent US20160185837A1
